Recorded MIC S. aureus for the following compounds
# Tested on: Staphylococcus aureus ATCC 25923
# Type: cell-based
# RUN_PARAMETERS: Table 3; unit assumed
EXPERIMENTAL_ENDPOINT: MIC S. aureus (µg/mL)

compound="CSCC[C@H](NC(=O)[C@H](CCCNC(=N)N)NC(=O)[C@H](Cc1c[nH]c2ccccc12)NC(=O)[C@H](CCC(N)=O)NC(=O)[C@H](Cc1c[nH]c2ccccc12)NC(=O)[C@H](CCCNC(=N)N)NC(=O)[C@H](CCCNC(=N)N)NC(=O)[C@H](CSCNC(C)=O)NC(=O)[C@H](CCCCN)NC(=O)[C@@H](N)Cc1ccccc1)C(=O)N[C@@H](CCCCN)C(=O)N[C@@H](CCCCN)C(=O)N[C@@H](CC(C)C)C(=O)NCC(=O)N[C@@H](C)C(=O)O [LFB 17-31]" experimental_endpoint="MIC S. aureus" unit_tag=µg/mL observed_result=100
compound="CSCC[C@H](NC(=O)[C@H](CCCCN)NC(=O)[C@H](CCCCN)NC(=O)[C@H](CC(C)C)NC(=O)CNC(=O)[C@H](C)N)C(=O)N[C@@H](CCCNC(=N)N)C(=O)N[C@@H](Cc1c[nH]c2ccccc12)C(=O)N[C@@H](CCC(N)=O)C(=O)N[C@@H](Cc1c[nH]c2ccccc12)C(=O)N[C@@H](CCCNC(=N)N)C(=O)N[C@@H](CCCNC(=N)N)C(=O)N[C@@H](CSCNC(C)=O)C(=O)N[C@@H](CCCCN)C(=O)N[C@@H](Cc1ccccc1)C(=O)O [Retro LFB 17-31]" experimental_endpoint="MIC S. aureus" unit_tag=µg/mL observed_result=200
compound="CSCC[C@@H](NC(=O)[C@@H](CCCNC(=N)N)NC(=O)[C@@H](Cc1c[nH]c2ccccc12)NC(=O)[C@@H](CCC(N)=O)NC(=O)[C@@H](Cc1c[nH]c2ccccc12)NC(=O)[C@@H](CCCNC(=N)N)NC(=O)[C@@H](CCCNC(=N)N)NC(=O)[C@@H](CSCNC(C)=O)NC(=O)[C@@H](CCCCN)NC(=O)[C@H](N)Cc1ccccc1)C(=O)N[C@H](CCCCN)C(=O)N[C@H](CCCCN)C(=O)N[C@H](CC(C)C)C(=O)NCC(=O)N[C@H](C)C(=O)O [Enantio LFB 17-31]" experimental_endpoint="MIC S. aureus" unit_tag=µg/mL observed_result=60
compound="CSCC[C@@H](NC(=O)[C@@H](CCCCN)NC(=O)[C@@H](CCCCN)NC(=O)[C@@H](CC(C)C)NC(=O)CNC(=O)[C@@H](C)N)C(=O)N[C@H](CCCNC(=N)N)C(=O)N[C@H](Cc1c[nH]c2ccccc12)C(=O)N[C@H](CCC(N)=O)C(=O)N[C@H](Cc1c[nH]c2ccccc12)C(=O)N[C@H](CCCNC(=N)N)C(=O)N[C@H](CCCNC(=N)N)C(=O)N[C@H](CSCNC(C)=O)C(=O)N[C@H](CCCCN)C(=O)N[C@H](Cc1ccccc1)C(=O)O [Retro-Enantio LFB 17-31]" experimental_endpoint="MIC S. aureus" unit_tag=µg/mL observed_result=80

----------
Recorded MIC E. coli for the following compounds
# Tested on: Escherichia coli ATCC 25922
# Type: cell-based
# RUN_PARAMETERS: ATCC 25922
Square brackets hold non-standard residues; d marks the D form. Peptide text beside a SMILES is read from it. * marks the point of attachment. Trp(2-Pmc) = Cc1c(C)c(S(=O)(=O)c2[nH]c3ccccc3c2C[C@H](N)C(=O)O)c(C)c2c1OC(C)(C)CC2; Acm = CC(=O)NC*
EXPERIMENTAL_ENDPOINT: MIC E. coli

compound="CSCC[C@H](NC(=O)[C@H](CCCNC(=N)N)NC(=O)[C@H](Cc1c[nH]c2ccccc12)NC(=O)[C@H](CCC(N)=O)NC(=O)[C@H](Cc1c[nH]c2ccccc12)NC(=O)[C@H](CCCNC(=N)N)NC(=O)[C@H](CC(C)C)NC(=O)[C@H](CSCNC(C)=O)NC(=O)[C@H](CCCCN)NC(=O)[C@H](C)N)C(=O)N[C@@H](CCCNC(=N)N)C(=O)N[C@@H](CCCCN)C(=O)N[C@@H](Cc1ccc(O)cc1)C(=O)NCC(=O)NCC(=O)O [LFM A1 R9 W8 Y13] (H-AKC(Acm)LRWQWRMRKYGG-OH; N-terminus and C-terminus assumed)" observed_result="50 µg/mL"
compound="CSCC[C@H](NC(=O)[C@H](CCCNC(=N)N)NC(=O)[C@H](Cc1c(S(=O)(=O)c2c(C)c(C)c3c(c2C)CCC(C)(C)O3)[nH]c2ccccc12)NC(=O)[C@H](CCC(N)=O)NC(=O)[C@H](C)NC(=O)[C@H](CCCNC(=N)N)NC(=O)[C@H](CCCNC(=N)N)NC(=O)[C@H](CSCNC(C)=O)NC(=O)[C@H](CCCCN)NC(=O)[C@@H](N)Cc1ccccc1)C(=O)N[C@@H](CCCCN)C(=O)N[C@@H](CCCCN)C(=O)N[C@@H](CC(C)C)C(=O)NCC(=O)N[C@@H](C)C(=O)O [LFB A6 PMC] (H-FKC(Acm)RRAQ[Trp(2-Pmc)]RMKKLGA-OH)" observed_result="25 µg/mL"
compound="CSCC[C@H](NC(=O)[C@H](CCCNC(=N)N)NC(=O)[C@H](Cc1c[nH]c2ccccc12)NC(=O)[C@H](CCC(N)=O)NC(=O)[C@H](Cc1c[nH]c2ccccc12)NC(=O)[C@H](CCCNC(=N)N)NC(=O)[C@H](CC(C)C)NC(=O)[C@H](CSCNC(C)=O)NC(=O)[C@H](CCCCN)NC(=O)[C@@H](N)CCCNC(=N)N)C(=O)N[C@@H](CCCNC(=N)N)C(=O)N[C@@H](CCCCN)C(=O)N[C@H](C(=O)NCC(=O)NCC(=O)O)C(C)C [LFM R1, 9 W8] (H-RKC(Acm)LRWQWRMRKVGG-OH; N-terminus assumed)" observed_result="25 µg/mL"
compound="CSCC[C@H](NC(=O)[C@H](CCC(=O)O)NC(=O)[C@H](Cc1c[nH]c2ccccc12)NC(=O)[C@H](CCC(N)=O)NC(=O)[C@H](Cc1c[nH]c2ccccc12)NC(=O)[C@H](CCCNC(=N)N)NC(=O)[C@H](CC(C)C)NC(=O)[C@H](CSCNC(C)=O)NC(=O)[C@H](CCCCN)NC(=O)[C@H](C)N)C(=O)N[C@@H](CCCNC(=N)N)C(=O)N[C@@H](CCCCN)C(=O)N[C@@H](Cc1ccc(O)cc1)C(=O)NCC(=O)NCC(=O)O [LFM A1 W8 Y13] (H-AKC(Acm)LRWQWEMRKYGG-OH; N-terminus and C-terminus assumed)" observed_result="500 µg/mL"

----------
# Test system: human red blood cells
# TEST_DETAILS: Hemolytic assay
# Type: cell-based
# RUN_PARAMETERS: red cells of human, 10
Peptide text beside a SMILES is read from it. * marks the point of attachment. Acm = CC(=O)NC*
EXPERIMENTAL_ENDPOINT: % Hemolysis 10 μg/ml (%)

compound="CSCC[C@H](NC(=O)[C@H](CCCNC(=N)N)NC(=O)[C@H](Cc1c[nH]c2ccccc12)NC(=O)[C@H](CCC(N)=O)NC(=O)[C@H](C)NC(=O)[C@H](CCCNC(=N)N)NC(=O)[C@H](CCCNC(=N)N)NC(=O)[C@H](CSCNC(C)=O)NC(=O)[C@H](CCCCN)NC(=O)[C@@H](N)Cc1ccccc1)C(=O)N[C@@H](CCCCN)C(=O)N[C@@H](CCCCN)C(=O)N[C@@H](CC(C)C)C(=O)NCC(=O)N[C@@H](C)C(=O)O [LFB A6] (H-FKC(Acm)RRAQWRMKKLGA-OH; N-terminus assumed)" unit_tag=% observed_result=2.78
compound="CSCC[C@H](NC(=O)[C@H](CCC(=O)O)NC(=O)[C@H](Cc1c[nH]c2ccccc12)NC(=O)[C@H](CCC(N)=O)NC(=O)[C@H](Cc1c[nH]c2ccccc12)NC(=O)[C@H](CCCNC(=N)N)NC(=O)[C@H](CC(C)C)NC(=O)[C@H](CSCNC(C)=O)NC(=O)[C@H](CCCCN)NC(=O)[C@H](C)N)C(=O)N[C@@H](CCCNC(=N)N)C(=O)N[C@@H](CCCCN)C(=O)N[C@H](C(=O)NCC(=O)NCC(=O)O)C(C)C [LFM A1 W8] (H-AKC(Acm)LRWQWEMRKVGG-OH; N-terminus assumed)" unit_tag=% observed_result=2.4

----------
# System: Staphylococcus aureus ATCC 25923
# Format: cell-based
# RUN_PARAMETERS: ATCC 25923
EXPERIMENTAL_ENDPOINT: MIC S. aureus

chemical_smiles=CSCC[C@H](NC(=O)[C@H](CCCNC(=N)N)NC(=O)[C@H](Cc1c[nH]c2ccccc12)NC(=O)[C@H](CCC(N)=O)NC(=O)[C@H](Cc1c[nH]c2ccccc12)NC(=O)[C@H](CCCNC(=N)N)NC(=O)[C@H](CCCNC(=N)N)NC(=O)[C@H](CSCNC(C)=O)NC(=O)[C@H](CCCCN)NC(=O)[C@H](Cc1ccccc1)NC(=O)[C@H](Cc1c[nH]c2ccccc12)NC(=O)[C@H](CCC(=O)O)NC(=O)[C@@H]1CCCN1)C(=O)N[C@@H](CCCCN)C(=O)N[C@@H](CCCCN)C(=O)N[C@@H](CC(C)C)C(=O)NCC(=O)N[C@@H](C)C(=O)O experimental_endpoint="MIC S. aureus" observed_result=">250 µg/mL"
